- Target or system: FUS RRM domain (Homo sapiens, UniProt P35637)
- Construct: RRM domain (285–370)
- Sequence (P35637 284-371 limits assumed): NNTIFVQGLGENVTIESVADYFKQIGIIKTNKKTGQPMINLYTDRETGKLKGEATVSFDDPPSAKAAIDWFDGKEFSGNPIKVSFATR
- Method description: 1H-15N HSQC NMR titration, one-site fit of chemical shift differences
Please go through the items and note down their pKd.
Answers are plain numbers, as −log10 of the molar value.

Study these solved cases before continuing.
Compound	Target or system	Property label	Readout value
Nc1ncnc2c1ncn2[C@@H]1O[C@H](COP(=O)(O)OP(=O)(O)OP(=O)(O)O)[C@@H](O)[C@H]1O [ATP]	FUS RRM domain (Homo sapiens, UniProt P35637)	pKd	2.42
O=P(O)(O)OP(=O)(O)OP(=O)(O)O [PPP]	FUS RRM domain (Homo sapiens, UniProt P35637)	pKd	1.90

In the following, a different compound is considered.
Recorded result, Nc1ncnc2c1ncn2[C@@H]1O[C@H](COP(=O)(O)O)[C@@H](O)[C@H]1O [AMP] , pKd: 1.76

src = paper PMC6586847
